Experimental target: T1, PUF4 RNA-binding domain (Saccharomyces cerevisiae, UniProt P25339 537-888)
T1 sequence: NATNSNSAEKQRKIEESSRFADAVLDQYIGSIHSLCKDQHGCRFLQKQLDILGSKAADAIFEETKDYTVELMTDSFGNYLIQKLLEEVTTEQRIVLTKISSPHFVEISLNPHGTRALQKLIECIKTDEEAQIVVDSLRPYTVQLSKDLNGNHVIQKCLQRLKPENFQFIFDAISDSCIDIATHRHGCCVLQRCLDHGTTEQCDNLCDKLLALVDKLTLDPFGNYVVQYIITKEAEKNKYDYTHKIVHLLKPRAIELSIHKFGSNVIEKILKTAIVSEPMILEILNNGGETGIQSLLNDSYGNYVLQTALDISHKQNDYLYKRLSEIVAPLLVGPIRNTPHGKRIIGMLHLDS
Protocol text: Mg; RNA-MaP; 20 mM Na-HEPES pH 7.4, 30 mM KOAc, 0.75 mM MgCl2, 0.1% Tween-20, 5% glycerol, 0.1 mg/mL BSA, 2 mM DTT; 25 C; 0.0125-409.6 nM protein
Experimental parameters: tags: N-His6-TEV cleaved; C-SNAP kept, Cy3B-labelled; label: tethered on chip by stalled RNA polymerase
Please respond with yes when measured Kd is strictly beneath 20 nM, and with no in all other cases.

| Binder | Assigned category |
| --- | --- |
| Ie_S4_P4E.1_K4.1_C4.1_H4.1_A4.1_[+6CTCT]_F4.1_T4.1 (ssRNA) RNA: UUUGACAACUGAUCGUUCUUUCUUGUAUACUCUUUAUUCUUUCUCGAUCAGUUGUCUUU | yes |
| UCUCUUUUACACUUAUUAUUUCUCUU (ssRNA) [Id_ii_S1_P5E.4_K5.3_C5.2_[C-2T]_H5.3_A5.1_F5.1_T5.2_[A12T]] | no |
| Ib_S2_P5E.1_K5.1_C5.1_H5.1_[A4T]_A5.1_[T5C]_F5.1_T5.1 (ssRNA) RNA: UUUGAUUAAUAUGAUAUCGUUCUUUCUUGUUCUAUUAUUCUUUCUCGAUAUCAUAUUAAUCUUU | yes |
| UCUCUUCGUACAUAUCUCUU (ssRNA) [Ib_S1_P3E.1_K3.1_C3.1_H3.1_[T1C]_A3.1_[T5C]_F3.1_T3.1] | no |
| Id_iii_S4_P3E.8_K3.4_C3.3_H3.1_A3.2_F3.1_T3.2_[A10G] (ssRNA) RNA: UUUGACAACUGAUCGUUCUUUCUUCUUGUAAAUAUGUUCUUUCUCGAUCAGUUGUCUUU | yes |
| UCUCUUUGUAUUGUAAUCUCUU (ssRNA) [Ib_S1_P5E.1_K5.1_C5.1_H5.1_A5.1_[A7G]_F5.1_[T9A]_T5.1] | yes |
| Ib_S4_P4E.1_K4.1_C4.1_H4.1_[T1C]_A4.1_[T5A]_F4.1_T4.1 (ssRNA) RNA: UUUGACAACUGAUCGUUCUUUCUCGUAAAUUAUUCUUUCUCGAUCAGUUGUCUUU | no |
| Ic_S4_P4E.1_K4.1_C4.1_H4.1_A4.1_[T5A]_[A6T]_[T7A]_F4.1_[T8A]_T4.1 (ssRNA) RNA: UUUGACAACUGAUCGUUCUUUCUUGUAAUAAAUUCUUUCUCGAUCAGUUGUCUUU | no |
| Id_ii_S4_P4E.2_K4.1_C4.2_[C-2T]_H4.1_A4.1_F4.1_T4.2 (ssRNA) RNA: UUUGACAACUGAUCGUUCUUUCUUUUGUAUAUUAGUUUCUUUCUCGAUCAGUUGUCUUU | yes |
| Id_iii_S2_P5E.5_K5.1_C5.3_H5.1_A5.1_F5.1_T5.2_[A12G] (ssRNA) RNA: UUUGAUUAAUAUGAUAUCGUUCUUUCUUCUUGUAUUAUUAUGUUCUUUCUCGAUAUCAUAUUAAUCUUU | yes |
| UCUCUUAGUACAUUAUCUCUU (ssRNA) [Ib_S1_P4E.1_K4.1_C4.1_H4.1_[T1A]_A4.1_[T5C]_F4.1_T4.1] | no |
| Ie_S2_P5E.1_K5.1_C5.1_H5.1_A5.1_[+7TCT]_F5.1_T5.1 (ssRNA) RNA: UUUGAUUAAUAUGAUAUCGUUCUUUCUUGUAUUAUCUUUAUUCUUUCUCGAUAUCAUAUUAAUCUUU | yes |
